Experiment: Measurement of Log P values by HPLC on reversed phase columns (EEC directive 79/831 Annex V.A8)
Assay type: physicochemical
Conditions: Table 1, compounds of formula (I); method [a]: LC-UV, acidic range, 0.1% formic acid in water and acetonitrile
Entries and their measured chromatographic logP follow.
Note: the reply should be a number with no unit written.

The following molecules have reported results that may help.
molecule	chromatographic logP
Cc1cc([C@@H]2CON=C(c3c(Sc4ccc(Cl)cc4Cl)nnc(C)c3C)N2)c(C)s1 (racemic)	3.87
Cc1cc([C@H]2CON=C(c3c(Sc4ccncc4)nnc(C)c3C)N2)c(C)s1 (racemic)	1.58
CCOc1cccc(Sc2nnc3ccccc3c2C2=NOC[C@H](c3ccc(C)s3)N2)c1 (racemic)	3.55
Cc1cc([C@H]2CON=C(c3c(Sc4ccc(F)c(F)c4)nnc(C)c3C)N2)c(C)s1 (racemic)	3.33

So what does the record say about chromatographic logP for Cc1ccc(C[C@@H]2CON=C(c3nc(C)ncc3Sc3cccc(Cl)c3)N2)c(Cl)c1 (racemic) ?
5.24

So what does the record say about chromatographic logP for Cc1cc([C@@H]2CON=C(c3c(Sc4ccc5ccccc5c4)nnc(C)c3C)N2)c(C)s1 (racemic) ?
3.68

So what does the record say about chromatographic logP for Cc1cc([C@@H]2CON=C(c3c(Sc4cccc(Cl)c4Cl)nnc(C)c3C)N2)c(C)s1 (racemic) ?
3.7

The reported numbers originate from patent US20250042886A1.
